- protocol.details: Photophysical characterization by absorption and fluorescence spectroscopy
- Type: physicochemical
- study.conditions: 25 μM probe in CH3CN/PBS pH 7.4
value.type: Emission λem (maximum emission wavelength)

molecule=Cc1c(C)n2c(/C=C/C=C/c3ccc(N(C)C)cc3)c(C)c(=O)n2c1=O reported_value="640 nm"
molecule=Cc1c(C)n2c(/C=C/c3ccc(N(C)C)cc3)c(C)c(=O)n2c1=O reported_value="604 nm"
molecule=CNc1ccc(/C=C/c2c(C)c(=O)n3c(=O)c(C)c(C)n23)cc1 reported_value="591 nm"
molecule=Cc1c(C)n2c(/C=C/c3ccc(N)cc3)c(C)c(=O)n2c1=O reported_value="583 nm"

---

Recorded Stokes Shift values for a group of compounds are listed next.
- protocol.details: Photophysical characterization by absorption and fluorescence spectroscopy
- Type: physicochemical
- study.conditions: difference between λabs and λem, CH3CN/PBS pH 7.4
value.type: Stokes Shift

molecule=Cc1c(C)n2c(/C=C/c3ccc(N(C)C)cc3)c(C)c(=O)n2c1=O reported_value="186 nm"
molecule=Cc1c(C)n2c(/C=C/c3ccc(N)cc3)c(C)c(=O)n2c1=O reported_value="198 nm"
molecule=CNc1ccc(/C=C/c2c(C)c(=O)n3c(=O)c(C)c(C)n23)cc1 reported_value="192 nm"
molecule=Cc1c(C)n2c(/C=C/C=C/c3ccc(N(C)C)cc3)c(C)c(=O)n2c1=O reported_value="204 nm"

---

- protocol.details: Photophysical characterization by absorption and fluorescence spectroscopy
- Assay type: physicochemical
- study.conditions: 25 μM probe in CH3CN/PBS pH 7.4
value.type: Absorbance λabs (maximum absorption wavelength) (nm)

compound="Cc1c(C)n2c(/C=C/c3ccc(N(C)C)cc3)c(C)c(=O)n2c1=O [3c]" units_label=nm reported_value=418
compound="Cc1c(C)n2c(/C=C/c3ccc(N)cc3)c(C)c(=O)n2c1=O [3a]" units_label=nm reported_value=385
compound="CNc1ccc(/C=C/c2c(C)c(=O)n3c(=O)c(C)c(C)n23)cc1 [3b]" units_label=nm reported_value=399
compound="Cc1c(C)n2c(/C=C/C=C/c3ccc(N(C)C)cc3)c(C)c(=O)n2c1=O [4a]" units_label=nm reported_value=436

---

- protocol.details: Viscosity sensitivity: fluorescence in ethylene glycol/glycerol mixtures
- Format: physicochemical
- study.conditions: EG/G mixtures 16 to 851 cP
value.type: Fluorescence intensity change with viscosity (fold)

molecule=Cc1c(C)n2c(/C=C/c3ccc(N(C)C)cc3)c(C)c(=O)n2c1=O reported_value=3.82
molecule=CNc1ccc(/C=C/c2c(C)c(=O)n3c(=O)c(C)c(C)n23)cc1 reported_value=4.68
molecule=Cc1c(C)n2c(/C=C/c3ccc(N)cc3)c(C)c(=O)n2c1=O reported_value=5.4
